Each recorded value in this set is attributed to ChEMBL document CHEMBL1201862.

# Test system: HCC 2998
# assay.explanation: NCI tumour cell line growth inhibition, 48 h
The source made the active and inactive calls. Rule as the data show it: active = GI50 up to about 1.1 µM and inactive = higher.
GI50 by entry:

Previously resolved entries follow.
Query: Please look at this molecule and report its GI50: COc1cccc2c1OC1c3ccccc3OCC1(O)C2 (stereo not given)
Reply: > 100 µM (inactive)

Query: Please look at this molecule and report its GI50: Cc1ccc(S(=O)(=O)Nc2nnc(S(N)(=O)=O)s2)cc1
Reply: > 100 µM (inactive)

Query: Please look at this molecule and report its GI50: CC(C)Oc1cccc(N2C(Nc3ccccc3)=Nc3ccncc3S2(=O)=O)c1
Reply: 1.69 µM (inactive)

Query: Please look at this molecule and report its GI50: O=C(/C=C/c1ccc(O)cc1)c1cc(Cl)ccc1O
Reply: 62.8 µM (inactive)

Query: Please look at this molecule and report its GI50: COc1ccc(N2C(=O)C3c4[nH]c5ccc(OC)cc5c4C4CCC(C(C)C)CC4C3C2=O)cc1 (stereo not given)
Reply: 33.7 µM (inactive)

Query: Please look at this molecule and report its GI50: CC1(O)CC2(O)C=CC3=C(C(=O)c4cccc(O)c4C3=O)C2(O)C(=O)C1O (stereo not given)
Reply: 4.09 µM (inactive)

Query: Please look at this molecule and report its GI50: CCOC(=O)C(Cc1ccc(OC(=O)c2ccc(OC)cc2)cc1)NC(=O)C(F)(F)F (stereo not given)
Reply: > 100 µM (inactive)

Query: Please look at this molecule and report its GI50: CS(=O)(=O)OCCN(CCOS(C)(=O)=O)c1ccc(/C=N/N=c2/nc[nH]c3nc[nH]c23)cc1
Reply: 19.4 µM (inactive)

Query: Please look at this molecule and report its GI50: O=C1CSC(/C(=C\c2ccc(Cl)cc2)c2nc3ccccc3[nH]2)=N1
Reply: 3.43 µM (inactive)

Turning now to a further record.
Query: Please look at this molecule and report its GI50: Cc1cccc2c(O)c3c(O)cc(O)cc3nc12
Reply: > 10 µM (inactive)
